Sourced from paper PMC3312318

- TESTED SYSTEM: PICK1 S77A, rat (rat, UniProt Q9EP80 1-416, S77A)
- Sequence (Q9EP80 whole entry S77A): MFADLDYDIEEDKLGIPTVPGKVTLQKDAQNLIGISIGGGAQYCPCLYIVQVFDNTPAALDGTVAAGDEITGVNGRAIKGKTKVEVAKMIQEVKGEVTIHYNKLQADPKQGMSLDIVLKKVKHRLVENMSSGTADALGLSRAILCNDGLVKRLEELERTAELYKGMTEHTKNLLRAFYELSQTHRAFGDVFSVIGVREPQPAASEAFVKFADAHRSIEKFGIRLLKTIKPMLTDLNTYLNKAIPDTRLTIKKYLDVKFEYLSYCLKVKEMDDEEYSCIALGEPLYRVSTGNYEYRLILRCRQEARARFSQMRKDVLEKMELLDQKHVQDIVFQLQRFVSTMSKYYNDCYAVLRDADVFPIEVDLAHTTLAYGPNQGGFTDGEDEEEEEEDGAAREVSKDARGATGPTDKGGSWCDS
- PROTOCOL: fluorescence polarisation
Answer each item with its documented pKi.
Worth noting: pKi values are minus log10 of concentrations stated in mol/L.

Short answer for NPQFVHPILQSAV [PKCα C13 (13 C-terminal residues of human protein kinase Cα)] : pKi was 4.55

Short answer for EGYNVYGIESVKI [GluA2 C13 (13 C-terminal residues of human GluA2)] : pKi was 5.01

Short answer for EVRQFTLRHWLKV [DAT C13 (13 C-terminal residues of the human dopamine transporter)] : pKi was 5.82
